target: TYK2 (Homo sapiens); construct: Degradation of TYK2 in cells was quantitatively measured using Meso Scale Discovery (MSD) technology; endogenous in cells; host or cells: OCI-LY10; test: TYK2 MSD degradation in OCI-LY10 cells; type: cell-based; conditions: TYK2 degradation in OCI-LY10 cells, 4 to 24 hours incubation
RESULT TYPE: TYK2 MSD OCI-LY10 Dmax %

# COMPOUND, RESULT TYPE, DATA VALUE
rows = [
    ("CNc1cc(N2CCc3c(CN4CCC(N5CCC6(CCN(C(=O)c7cc(C)c(C)c(N8CCC(=O)NC8=O)c7)CC6)CC5)C(F)(F)C4)cccc32)nn2c(C(=O)N[C@@H]3CC[C@H]3OC)cnc12 (some centres unmarked) [I-995]", "TYK2 MSD OCI-LY10 Dmax %", "A (A (>90%))"),
    ("CNc1cc(N2CCc3c(CN4CCC(N5CCC6(CCN(C(=O)c7ccc(Cl)c(N8CCC(=O)NC8=O)c7)CC6)C5)C(F)(F)C4)cccc32)nn2c(C(=O)N[C@@H]3C[C@@H]3F)cnc12 (some centres unmarked) [I-805]", "TYK2 MSD OCI-LY10 Dmax %", "A (A (>90%))"),
    ("CNc1cc(N2CCc3c(CN4CCC(N5CCN(C(=O)c6ccc(Cl)c(N7CCC(=O)NC7=O)c6)CC5)C(F)(F)C4)cccc32)nn2c(C(=O)N[C@@H]3C[C@@H]3F)cnc12 (some centres unmarked) [I-890]", "TYK2 MSD OCI-LY10 Dmax %", "B (B (90 to >75%))"),
    ("CNc1cc(N2CCc3c(-c4ncc([C@@H](C)N5CC6(CCN(C(=O)c7cc(C)c(Cl)c(N8CCC(=O)NC8=O)c7)CC6(F)F)C5)cc4F)cccc32)nn2c(C(=O)N[C@@H]3CC[C@H]3OC)cnc12 [I-1144]", "TYK2 MSD OCI-LY10 Dmax %", "B (B (90 to >75%))"),
]

---

Listed molecules paired with reported DC50
target: TYK2 (Homo sapiens, UniProt P29597); construct: Degradation of TYK2 in cells was quantitatively measured using Meso Scale Discovery (MSD) technology; endogenous in cells; host or cells: OCI-LY10; experiment: TYK2 MSD degradation in OCI-LY10 cells; format: cell-based; conditions: OCI-LY10 cells, 4 to 24 hours incubation, read-out: TYK2 MSD OCI-LY10 Rel-DC50
Sequence (P29597 whole entry): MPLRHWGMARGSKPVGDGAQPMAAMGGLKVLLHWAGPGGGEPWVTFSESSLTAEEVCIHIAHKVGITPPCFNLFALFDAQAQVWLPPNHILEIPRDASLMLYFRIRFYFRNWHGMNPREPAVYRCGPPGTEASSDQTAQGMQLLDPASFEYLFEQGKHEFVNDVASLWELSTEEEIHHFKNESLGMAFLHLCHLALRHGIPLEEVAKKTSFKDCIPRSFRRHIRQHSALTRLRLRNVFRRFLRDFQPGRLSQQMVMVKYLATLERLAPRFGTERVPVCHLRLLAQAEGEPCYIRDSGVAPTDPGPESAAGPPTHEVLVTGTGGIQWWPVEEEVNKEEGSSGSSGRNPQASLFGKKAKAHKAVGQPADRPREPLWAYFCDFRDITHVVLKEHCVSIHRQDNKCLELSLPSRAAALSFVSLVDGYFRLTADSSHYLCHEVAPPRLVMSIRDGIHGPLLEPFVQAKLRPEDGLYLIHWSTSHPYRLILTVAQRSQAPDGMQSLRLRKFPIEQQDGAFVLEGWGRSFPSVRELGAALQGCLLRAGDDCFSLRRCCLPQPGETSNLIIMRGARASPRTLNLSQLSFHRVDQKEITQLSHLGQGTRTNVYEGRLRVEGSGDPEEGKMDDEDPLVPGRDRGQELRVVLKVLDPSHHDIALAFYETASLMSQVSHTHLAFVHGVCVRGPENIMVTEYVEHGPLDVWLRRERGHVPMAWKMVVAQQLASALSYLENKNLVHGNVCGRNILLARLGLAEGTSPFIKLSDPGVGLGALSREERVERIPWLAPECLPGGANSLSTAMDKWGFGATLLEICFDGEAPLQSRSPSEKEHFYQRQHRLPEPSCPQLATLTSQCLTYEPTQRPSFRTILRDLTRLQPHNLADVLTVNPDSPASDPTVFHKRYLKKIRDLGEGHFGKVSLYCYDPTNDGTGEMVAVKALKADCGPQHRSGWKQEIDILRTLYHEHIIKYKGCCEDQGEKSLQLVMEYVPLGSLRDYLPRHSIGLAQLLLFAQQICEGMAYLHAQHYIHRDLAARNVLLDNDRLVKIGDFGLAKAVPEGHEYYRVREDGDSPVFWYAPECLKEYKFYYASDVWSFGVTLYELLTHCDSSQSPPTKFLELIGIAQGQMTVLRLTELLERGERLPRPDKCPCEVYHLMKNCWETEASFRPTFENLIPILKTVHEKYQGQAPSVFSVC

# MOLECULE, DC50
measured = [
    ("CNc1cc(N2CCc3c(-c4ccc(CN5CC6(CCN(C(=O)c7ccc(Cl)c(C8CCC(=O)NC8=O)c7)CC6(F)F)C5)cn4)cccc32)nn2c(C(=O)N[C@@H]3C[C@@H]3F)cnc12 (stereo partly drawn)", "< 1 nM"),
    ("CNc1cc(N2CCc3c(-c4ccc(CN5CCC6(CCN(C(=O)c7cc(C)c(OC)c(N8CCC(=O)NC8=O)c7)CC6)C(F)(F)C5)cn4)cccc32)nn2c(C(=O)N[C@@H]3C[C@@H]3F)cnc12", "< 10 nM"),
]

From here, focus on the item given below.
The reported DC50 of the molecule `CNc1cc(N2CCc3c(-c4ccc(CN5CC6(CCN(C(=O)c7cc(Cl)c(C)c(N8CCC(=O)NC8=O)c7)CC6(F)F)C5)cn4)cccc32)nn2c(C(=O)N[C@@H]3CC[C@H]3OC)cnc12` was < 1 nM

---

target: TYK2 (Homo sapiens); construct: Degradation of TYK2 in cells was quantitatively measured using Meso Scale Discovery (MSD) technology; endogenous in cells; host or cells: OCI-LY10; assay: TYK2 MSD degradation in OCI-LY10 cells; type: cell-based; conditions: TYK2 degradation in OCI-LY10 cells, 4 to 24 hours incubation, read-out: TYK2 MSD OCI-LY10 Rel-DC50
Listed compounds paired with reported DC50

In the examples that follow, each entry is paired with its recorded DC50.
# COMPOUND, TARGET OR SYSTEM, DC50
records = [
    ("CNc1cc(N2CCc3c(-c4cc(CN5CCC(c6ccc7c(c6)n(C)c(=O)n7C6CCC(=O)NC6=O)C(F)(F)C5)ccn4)cccc32)nn2c(C(=O)NC3CC3)cnc12 (centres unmarked)", "TYK2 (Homo sapiens)", "> 100 nM"),
    ("CNc1cc(N2CCc3c(CN4CCC(N5CCC(C6CCN(C(=O)c7cc(C)c(Cl)c(N8CCC(=O)NC8=O)c7)CC6)CC5)C(F)(F)C4)cccc32)nn2c(C(=O)N[C@@H]3CC[C@H]3OC)cnc12 (some centres unmarked)", "TYK2 (Homo sapiens)", "< 1 nM"),
    ("CNc1cc(N2CCc3c(-c4ncc(CN5CC6(CCN(C(=O)c7cc(N8CCC(=O)NC8=O)c(F)cn7)CC6(F)F)C5)cc4F)cc(F)cc32)nn2c(C(=O)N[C@@H]3CC[C@H]3OC)cnc12", "TYK2 (Homo sapiens)", "< 1 nM"),
    ("CNc1cc(N2CCc3c(CN4CCC(CN5CCN(C(=O)c6ccc(Cl)c(N7CCC(=O)NC7=O)c6)CC5)CC4)cccc32)nn2c(C(=O)N[C@@H]3C[C@@H]3F)cnc12", "TYK2 (Homo sapiens)", "> 100 nM"),
]

The reported DC50 of the compound CNc1cc(N2CCc3c(CN4CCC(N5CC6(CCN(C(=O)c7ccc(Cl)c(N8CCC(=O)NC8=O)c7)CC6)C5)C(F)(F)C4)cccc32)nn2c(C(=O)N[C@@H]3C[C@@H]3F)cnc12 (some centres unmarked) was < 1 nM

---

target: TYK2 (Homo sapiens); construct: Degradation of TYK2 in cells was quantitatively measured using Meso Scale Discovery (MSD) technology; endogenous in cells; host or cells: OCI-LY10; test: TYK2 MSD degradation in OCI-LY10 cells; assay type: cell-based; details: TYK2 degradation in OCI-LY10 cells, 4 to 24 hours incubation
RESULT TYPE: TYK2 MSD OCI-LY10 Dmax %

In the examples that follow, each entry is paired with its recorded TYK2 MSD OCI-LY10 Dmax %.
# MOLECULE, RESULT TYPE, DATA VALUE
measured = [
    ("CNc1cc(N2CCc3c(-c4cc(CN5CCN(c6ccc7c(c6F)n(C)c(=O)n7C6CCC(=O)NC6=O)CC5)ccn4)cccc32)nn2c(C(=O)NC3CC3)cnc12 (centres unmarked)", "TYK2 MSD OCI-LY10 Dmax %", "B (B (90 to >75%))"),
    ("CNc1cc(N2CC3(CCN(CCc4ccc5c(c4)n(C)c(=O)n5C4CCC(=O)NC4=O)CC3)c3ccccc32)nn2c(C(=O)NC3CC3)cnc12 (centres unmarked)", "TYK2 MSD OCI-LY10 Dmax %", "D (D (<50%))"),
    ("CNc1cc(N2CCc3c(-c4ccc(CN5CC6(CCN(C(=O)c7cnc(OC)c(N8CCC(=O)NC8=O)c7)CC6)C5)cn4)cccc32)nn2c(C(=O)N[C@@H]3C[C@@H]3F)cnc12", "TYK2 MSD OCI-LY10 Dmax %", "B (B (90 to >75%))"),
    ("CNc1cc(N2CCc3c(CN4CCC5(CC4)CCN(C(=O)c4ccc(Cl)c(N6CCC(=O)NC6=O)c4)CC5)cccc32)nn2c(C(=O)NC3CC3)cnc12", "TYK2 MSD OCI-LY10 Dmax %", "D (D (<50%))"),
    ("CNc1cc(N2CC3(CCN(CC4CCN(c5cccc6c5n(C)c(=O)n6C5CCC(=O)NC5=O)CC4)CC3)c3ccccc32)nn2c(C(=O)NC3CC3)cnc12 (centres unmarked)", "TYK2 MSD OCI-LY10 Dmax %", "D (D (<50%))"),
    ("CNc1cc(N2CCc3c(-c4ccc(CN5CCC(N6CCC(Oc7ccc(Cl)c(N8CCC(=O)NC8=O)c7)CC6)C(F)(F)C5)cn4)cccc32)nn2c(C(=O)N[C@@H]3C[C@@H]3F)cnc12 (some centres unmarked)", "TYK2 MSD OCI-LY10 Dmax %", "D (D (<50%))"),
    ("CNc1cc(N2CCc3c(-c4ccc(CN5CC6(CCN(C(=O)c7ccc(Cl)c(N8CCC(=O)NC8=O)c7)CC6(F)F)C5)cn4)cccc32)nn2c(C(=O)NC3CC3)cnc12", "TYK2 MSD OCI-LY10 Dmax %", "B (B (90 to >75%))"),
    ("CNc1cc(N2CCc3c2cccc3C23CC(CN4CC5(CCN(C(=O)c6ccc(Cl)c(N7CCC(=O)NC7=O)c6)CC5(F)F)C4)(C2)C3)nn2c(C(=O)N[C@@H]3C[C@@H]3F)cnc12", "TYK2 MSD OCI-LY10 Dmax %", "B (B (90 to >75%))"),
    ("CNc1cc(N2CCc3c(-c4ccc(CN5CCC6(CCN(C(=O)c7ccc(Cl)c(N8CCC(=O)NC8=O)c7)CC6)C5)cn4)cccc32)nn2c(C(=O)N[C@H]3C[C@H]3F)cnc12", "TYK2 MSD OCI-LY10 Dmax %", "B (B (90 to >75%))"),
]

GET /values?item= `CNc1cc(N2CCc3c(-c4ccc(CN5CC6(CCN(C(=O)c7ccc(Cl)c(N8CCC(=O)NC8=O)c7)CC6(F)F)C5)cn4)cccc32)nn2c(C(=O)N[C@H]3C[C@H](OC)C3)cnc12` &system= TYK2 (Homo sapiens) returns TYK2 MSD OCI-LY10 Dmax %: B (B (90 to >75%))
